organism: Rattus norvegicus; test: Open TG-GATES - Regimen: Single; type: toxicity, organism-based, Sprague-Dawley; parameters: regimen Single, gender Male, age 6 weeks; conditions: in vivo, po, 0 mg/kg, 3 h, tissue Kidney, route gavage, dose level Control
Consider the following compounds and their measured KIDNEY_TOTAL readings.
Hi! Could you send only the number? It should be in g, unit omitted.

COc1ccc(Cl)cc1C(=O)NCCc1ccc(S(=O)(=O)NC(=O)NC2CCCCC2)cc1 [GLYBURIDE]	1.9

Can you look up the measured KIDNEY_TOTAL of CNCCC(Oc1ccc(C(F)(F)F)cc1)c1ccccc1.Cl (configuration not stated) [FLUOXETINE HYDROCHLORIDE] for me? 1.9

Fill in: KIDNEY_TOTAL of COc1ccc(O)c(C(C)(C)C)c1.COc1ccc(O)cc1C(C)(C)C [BUTYLATED HYDROXYANISOLE] is ___ 1.7

Fill blank: measured KIDNEY_TOTAL of the compound S=C=Nc1cccc2ccccc12 [1-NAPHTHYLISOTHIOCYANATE] is ____. 2

Recorded KIDNEY_TOTAL for Cn1cnc([N+](=O)[O-])c1Sc1ncnc2nc[nH]c12 [AZATHIOPRINE] , please? 1.7

For the compound O=C1CN(/N=C/c2ccc(-c3ccc([N+](=O)[O-])cc3)o2)C(O)=N1 [DANTROLENE] , what KIDNEY_TOTAL is on record? 1.9

Which value of KIDNEY_TOTAL has been reported for Cc1cccc(Nc2cc(Cl)nc(SCC(=O)O)n2)c1C [PIRINIXIC ACID] in the records? 1.7

Given the compound O=P1(N(CCCl)CCCl)NCCCO1 (configuration not stated) [CYCLOPHOSPHAMIDE ANHYDROUS] , what is its reported KIDNEY_TOTAL? 1.7

Look at this compound and give its reported KIDNEY_TOTAL. C=CCO [ALLYL ALCOHOL] 1.8

# KIDNEY_TOTAL lookup, item Cc1cnc(NC(=O)C2=C(O)c3ccccc3S(=O)(=O)N2C)s1 [MELOXICAM] 2

Recorded KIDNEY_TOTAL of CS(=O)(=O)Nc1ccc([N+](=O)[O-])cc1Oc1ccccc1 [NIMESULIDE] , please. 1.9

What value of KIDNEY_TOTAL has been reported for the following compound? O=C1NC(=O)C(c2ccccc2)(c2ccccc2)N1 [PHENYTOIN] 1.9
